System: MS2 coat protein
Assay: apparent KD of MS2 coat protein, switch ON state; designed switch direction (-1 OFF switch, 1 ON switch): 1; higher = weaker reporter binding
Conditions: FMN input: 0 or 200 uM; Eterna round: R93 (includes R88 designs)
Listed sequences paired with reported apparent KD of MS2 coat protein
Number plus unit, in that order.

Check out these entries, answers already filled in.
>  <SEQUENCE>
AGAAAUAAAAGAGAGGAUAUCCAAAAGAAAACAUGAGGAUCACCCAUGUAGACGAAAGUCAAAUGGGAGAAGGCUCAAAAUAAAG [80% More Helter Skelter 2 + Hairpin]

>  <STUDY SYSTEM>
MS2 coat protein

>  <apparent KD of MS2 coat protein>
0.0614 µM

$$$$
>  <SEQUENCE>
AAGAAACAUGAGGAUCACCCAUGUAGAAAUAUGGGAGGAUAUACGAAGACGAAAGUCGAAGUAGAAGGCCUAAGAA [Mat - Same State 1 - Meechl mod - D131]

>  <STUDY SYSTEM>
MS2 coat protein

>  <apparent KD of MS2 coat protein>
0.0151 µM

$$$$
>  <SEQUENCE>
AGGAAACAUGAGGAUCACCCAUGUAAAAAAGUGGGAGGAUAUACUAGAAGAAACAAAAUAGUAGAAGGCCUAAAAA [75%, Ex sub1, 32]

>  <STUDY SYSTEM>
MS2 coat protein

>  <apparent KD of MS2 coat protein>
0.00999 µM

$$$$
>  <SEQUENCE>
AAAAGACAUGAGGAUCACCCAUGUAAAAACAUAGGAGGAUAUGUCGUGAAAAAAGACUUGGCAGAAGGCCUUUGUC [SS1 - 45]

>  <STUDY SYSTEM>
MS2 coat protein

>  <apparent KD of MS2 coat protein>
0.0481 µM

$$$$
>  <SEQUENCE>
CAUCAUGCGCCUAAGGAUAUGUCUCACAAGACAUGAGGAUCACCCAUGUAGAAUAAAUAAAUGAUGCAGAAGGUGGAGUGCAUGC [Rierre]

>  <STUDY SYSTEM>
MS2 coat protein

>  <apparent KD of MS2 coat protein>
0.0721 µM

$$$$
>  <SEQUENCE>
AUAUAUAUAAGGUAGGAUAUCCAAAAGUCCACAUGAGGAUCACCCAUGUAAAGAAAGAAAAAAUGGGAGAAGGACCAUAUAUAUA [77%, More Tesla, 5]

>  <STUDY SYSTEM>
MS2 coat protein

>  <apparent KD of MS2 coat protein>
0.0187 µM

$$$$
>  <SEQUENCE>
AUAAAAACGUAUGAGGAUAUCCAAAAUAAAACAUGAGGAUCACCCAUGUGAAUAAAAUAACAAUGGGAGAAGGCAUACGUAUCAU [SS 2 M 53]

>  <STUDY SYSTEM>
MS2 coat protein

>  <apparent KD of MS2 coat protein>
0.0125 µM

$$$$
>  <SEQUENCE>
AAGAAACAUGAGGAUCACCCAUGUAAAAUAAACACAGGAUAUGCGAAAAGAAACAAAGAAGCAGAAGGGUGAAGAA [Mat - Same State 1 - Tesla mod - 56]

>  <STUDY SYSTEM>
MS2 coat protein

>  <apparent KD of MS2 coat protein>
0.0169 µM

$$$$
>  <SEQUENCE>
UGAAAACAUGAGGAUCACCCAUGUCUAGGAAAUCAAGGAUAUGGGCCGGCAAUAGGCGGGCCAGAAGGUGAGAAAU [Arisati]

>  <STUDY SYSTEM>
MS2 coat protein

>  <apparent KD of MS2 coat protein>
0.0887 µM

$$$$
>  <SEQUENCE>
GGAAAUAACAGAGAGGAUAUCCAAAGGAAAACAUGAGGAUCACCCAUGUAAAAGGAAGGAAAUUGGGAGAAGGCUCAAAAUAAUC [salish99-ss2-017]

>  <STUDY SYSTEM>
MS2 coat protein

>  <apparent KD of MS2 coat protein>
0.0239 µM

$$$$

Assay MS2 coat protein, sample UUAAGCCGCGGGCAGGAUAUGUAUUAAAAUACAUGAGGAUCACCCAUGUGCAGGUGUAACACCUGACAGAAGGGCCAAUCGCAGC [Ceanreerqu] , apparent KD of MS2 coat protein read: 0.0264 µM

apparent KD of MS2 coat protein for MS2 coat protein with input AGCCGCACUAUACAGGAUAUCACAAUAUCGACAUGAGGAUCACCCAUGUGACUGGCACCAGUCGGUGAGAAGGGUGAAGUGCGGC [Raarati] equals 0.0906 µM

---

Tested on: K4 kissing-loop RNA reporter;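 further: bound reporter read as fluorescence of individual clusters on recovered sequencing chips by microscopy, with normalized cluster intensities fitted with a binding model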
Assay: apparent KD of K4 kissing-loop reporter; higher = weaker reporter binding
Settings: Eterna round: R107; input ligand: arginine 13.2 mM
# maps each entry to its apparent KD of K4 kissing-loop reporter
Numbers only here, please. The scale is nM.

Answered cases to consult:
>  <SEQUENCE>
UGGAGUUGACGAAAAGUCAACUCCUGAGAUACCAGUGACGAAGGUCACCCUUGGCAGCUCACUGCUAGUGAUGUUGGAAGAUAAA [whbob_SS_Theo_A_w48]

>  <DISPLAY UNIT>
nM

>  <apparent KD of K4 kissing-loop reporter>
276

$$$$
>  <SEQUENCE>
GUGCGCGCGGCGGCCGCCACUCGCAUGAGAGUGAUGUUCUCGGGACUGACGGAAGUCAGUCAUGGGAGGACCGGGCCGGGCUGCG [#2 Same State - Tryptophan B Attempt #13 (HarryS)]

>  <DISPLAY UNIT>
nM

>  <apparent KD of K4 kissing-loop reporter>
958

$$$$
>  <SEQUENCE>
UGAUUGGCGAAAGUAGUGAUGUUACGAAUAUAGGAUAUUAGAGGAAUAAGAAGGAUAAAUGAGAAAUAGGUAAAUUGUUGGUUGG [FMN same state]

>  <DISPLAY UNIT>
nM

>  <apparent KD of K4 kissing-loop reporter>
51.5

$$$$
>  <SEQUENCE>
GAUUCUAGCGAAAGUGAUGUUUUCGAGGAUACCAGUGCCACUUGACACCCUUGGCAGCCUACCCGUCAUCACAAGUGGCGUUAAA [theeternabot_exclusion_KL_Theo_A_28]

>  <DISPLAY UNIT>
nM

>  <apparent KD of K4 kissing-loop reporter>
114

$$$$
>  <SEQUENCE>
UAGGUUUAAUCGGCCGCCACUAUCAGAGCGCCAGUGAUGUUGGAGUAACGAUCGUGGCGAGUUAAUAGGACCGGGAUUCAACACA [Velazaer]

>  <DISPLAY UNIT>
nM

>  <apparent KD of K4 kissing-loop reporter>
141

$$$$

Please examine the following record next.
Memo: UGGGAUGGGCGAGGAUAUGGUGAGGUGGCGGUUGUUAGUGAUGUUGGUGAUGCUAGUGAUGUUUGUCCAGAAGGCGCGGGAUUUU [BDazzled] , reported apparent KD of K4 kissing-loop reporter: 104

---

Tested on: MS2 coat protein
Experiment: apparent KD of MS2 coat protein, switch OFF state (with FMN for OFF switches, without FMN for ON switches); designed switch direction (-1 OFF switch, 1 ON switch): 1; higher = weaker reporter binding
Details: FMN input: 0 or 200 uM; Eterna round: R93 (includes R88 designs)
The threshold is inclusive: apparent KD of MS2 coat protein of exactly 70 nM counts as class 1; values below receive class 0.

Recorded results for 5 sequences are shown here.
>  <SEQUENCE>
AAAAAACAUGAGGAUCACCCAUGUAAUUAAAACGCAGGAUAUAGAAAAAAAAAAAUGUUACUAGAAGGGUGAAAAA ['Same State 1']

>  <CLASS>
class 0

$$$$
>  <SEQUENCE>
CCCAAUGCAACGAAGGAUAUCCGUCAUGCCACAUGAGGAUCACCCAUGUACUGGCGGCACAAGACGGAGAAGGUCGGGUGCUGUG [Quenrean]

>  <CLASS>
class 0

$$$$
>  <SEQUENCE>
AGGAGACAUGAGGAUCACCCAUGUGAGAAGAGGCGAGGAUAUCGAAAAAAAAAAAAAAAACGAGAAGGCGCGAGAA [salish99-SS1-002]

>  <CLASS>
class 0

$$$$
>  <SEQUENCE>
CGAAAGGAGAGAGAGGAUAUCCAAAGGAAAACAUGAGGAUCACCCAUGUAGAAGGUAGGAGAUUGGGAGAAGGCUCAAGAGAGCU [salish99-ss2-152]

>  <CLASS>
class 0

$$$$
>  <SEQUENCE>
AUUUUACAUGAGGAUCACCCAUGUUUUGGUGGAUCAGGAUAUAAAUUGAAUGAGUUUUAGUUAGAAGGGAUAUAUA [JR_SS001_Sub505]

>  <CLASS>
class 0

$$$$

Query: Test whether the sequence GAAAUAAAAACACAGGAUAUCCAAAAGAAAACAUGAGGAUCACCCAUGUAAAGAAAAUAAAAAUGGGAGAAGGGUGAAAAUAAAG [Mat - Same State 2 - JL mod - D25] records apparent KD of MS2 coat protein of 70 nM or higher.
Result: class 1

Query: State whether the measured apparent KD of MS2 coat protein reaches 70 nM, counting equality as reaching it, for AGGAAACAUGAGGAUCACCCAUGUAGAAAUAUGGGAGGAUAUCGGAAUAAAAUAAAGAAACGAGAAGGCCUAAAAG [59%, Flamingo, 3]
Result: class 1

Query: Hello, I need to know if AGAAGACAUGAGGAUCACCCAUGUGGGAAUAUGGGAGGAUAUACAAAGACGAGAGUCAGAGUAGAAGGCCUAGGCC [salish99-ss1-110] has measured apparent KD of MS2 coat protein not below 70 nM. Thanks!
Result: class 1

Query: Reported apparent KD of MS2 coat protein at or above 70 nM? AGGCAACAUGAGGAUCACCCAUGUCGCAACAAUCAAGGAUAUGGGAGAAAUAAGAAAAUACCAGAAGGUGAAAUAA [Telelabe]
Result: class 1

Query: State whether the measured apparent KD of MS2 coat protein reaches 70 nM, counting equality as reaching it, for AAAAAACAUGAGGAUCACCCAUGUGAGAACAUGGGAGGAUAUACGAGGACGAGAGUCAUAGUAGAAGGCCUAAAAA [Garnet 67]
Result: class 0
